Reported TGI is given for each of the following molecules.
system: SNB-19 CNS; assay: NCI tumour cell line growth inhibition, 48 h
PROPERTY: TGI (µM)

1. CCOC(=O)N1C/C(=C/c2ccc(Cl)cc2)C(=O)/C(=C/c2ccc(Cl)cc2)C1
18.4
2. CCCCCCCCOCC(CO)OCCCCCCCC (stereo not given)
41.8
3. COc1cc(OC)c2c(c1)C(=O)C(CC1(C)OCCCO1)=CC2=O
32.4
4. CCC(CC)c1nc(Nc2cccc(OC)c2)c2ccccc2n1
13.3

----------
Measured TGI values are reported for all entries that follow.
test system: MDA-MB-435; assay: NCI tumour cell line growth inhibition, 48 h
PROPERTY: TGI

1. O=C(CC1(O)C(=O)Nc2c(Cl)ccc(Cl)c21)c1ccco1 (stereo unspecified)
3.44 µM
2. O=C(Nc1ccc(OCc2nnc(-c3ccc(Cl)cc3)o2)c(F)c1)c1ccc(Cl)c(C(F)(F)F)c1
> 50 µM
3. CCOC(=O)C1C(=O)C=C(c2cc(C)ccc2O)CC1c1cccc(Cl)c1 (stereo unspecified)
8.23 µM
4. CC1(CO)COC(C)(C)OC1
> 100 µM
5. Cn1c(-c2ccccc2)cc(-c2ccsc2)c1-c1ccsc1
> 100 µM
6. Cn1ccc(=O)c2c(O)c3ccccc3c(O)c21
> 100 µM

----------
tested on: SW-620 colon; assay: NCI tumour cell line growth inhibition, 48 h; in the data active = GI50 below about 0.43 µM; inactive = the rest
Labels: active, inactive

1. O=C(COc1nc2ccccc2nc1-c1ccccc1)Nc1ccc(Cl)cc1
inactive
2. CCC(CC)c1nc(Nc2cccc(OC)c2)c2ccccc2n1
inactive
3. CCOC(=O)N1C/C(=C/c2ccc(Cl)cc2)C(=O)/C(=C/c2ccc(Cl)cc2)C1
inactive
4. Cn1ccc(=O)c2c(O)c3ccccc3c(O)c21
inactive
5. CCC[CH2][Sn]1([CH2]CCC)[O]C(=O)c2cccc(C)c2[O]1
active
6. COc1cc2ccnc(C=O)c2cc1OC
inactive
7. N#Cc1c(-c2ccccc2)cc(-c2ccccc2)n(CCCC(=O)NO)c1=O
inactive
8. COC(=O)[C@@H](C)C[C@H](Cc1ccc2ccccc2c1)NC(=O)c1csc([C@@H](C[C@H](C(C)C)N(C)C(=O)[C@@H](NC(=O)[C@H]2CCCCN2C)C(C)C)OC(C)=O)n1
active
9. CC(=O)/C=C/c1ccc(OCc2ccc(C(C)(C)C)cc2)cc1
inactive
10. COc1cc(-c2ccc(-c3ccc(C(=N)N)cc3)s2)cc(OC)c1OC
inactive
11. O=C1C=CC(=O)c2cc3cc(CO)ccc3cc21
inactive
12. CS(=O)(=O)O[C@H]1C(=O)N(c2cc3c4ccccc4ccc3c3ccccc23)[C@@H]1c1ccccc1
inactive

----------
system: MALME-3M melanoma; assay: NCI tumour cell line growth inhibition, 48 h
PROPERTY: GI50

1. COc1ccc(/C=C/C(=O)c2cc3c(N)c(C(=O)Nc4cccc(Cl)c4C)sc3nc2C)cc1
1250 nM
2. COc1cc2ccnc(C=O)c2cc1OC
14700 nM
3. CCCCCCCCCCS(=O)CC(CO)NC(=O)/C=C/c1c(C)[nH]c(=O)[nH]c1=O (stereo not given)
23900 nM
4. c1ccc2cc(C[n+]3ccn(CCCCCCCCCCCCn4cc[n+](Cc5ccc6ccccc6c5)c4)c3)ccc2c1
469 nM
5. C[n+]1c(-c2ccccc2)c2cc(N)ccc2c2ccccc21
1980 nM
